Kindly supply the reported Kd values for the records listed here.
EXPERIMENTAL_SYSTEM: T1, extracellular domain of human BLyS protein (hBLyS-ECD), His-tagged, Ala134-Leu285 (human, UniProt Q9Y275 134-285)
T1 construct: Expressed in HEK293 cells and purified on a Ni column; also called immunogen
T1 sequence (Q9Y275 134-285): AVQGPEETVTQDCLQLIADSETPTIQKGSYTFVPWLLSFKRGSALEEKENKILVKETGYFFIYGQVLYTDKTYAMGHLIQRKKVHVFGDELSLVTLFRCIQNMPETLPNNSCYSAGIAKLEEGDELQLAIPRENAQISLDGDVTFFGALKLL
ASSAY: SPR (Biacore), antibody captured by anti-human Fc, hBLyS-ECD as analyte
One number for each entry, in nM.

- BINDER: "h8E7D9C7F5-1 (antibody, V domains shown, Humanized antibody; also called humanized BLyS antibody h8E7D9C7F5 variant 1 (VH.1 / Vk.1)) VH: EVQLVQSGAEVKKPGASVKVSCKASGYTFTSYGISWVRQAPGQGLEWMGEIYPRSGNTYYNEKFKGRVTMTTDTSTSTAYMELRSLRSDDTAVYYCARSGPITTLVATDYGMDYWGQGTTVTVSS VL: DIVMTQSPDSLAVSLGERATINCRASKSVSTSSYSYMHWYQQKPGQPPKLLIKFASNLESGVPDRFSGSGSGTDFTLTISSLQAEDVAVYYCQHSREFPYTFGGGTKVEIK"
  UNIT_TEXT: "nM"
  Kd: 4.33
- BINDER: "c8E7D9C7F5 (antibody, V domains shown, also called chimeric antibody c8E7D9C7F5) VH: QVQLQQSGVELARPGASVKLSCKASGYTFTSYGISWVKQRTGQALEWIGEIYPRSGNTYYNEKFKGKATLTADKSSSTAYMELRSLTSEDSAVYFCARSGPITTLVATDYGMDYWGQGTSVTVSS VL: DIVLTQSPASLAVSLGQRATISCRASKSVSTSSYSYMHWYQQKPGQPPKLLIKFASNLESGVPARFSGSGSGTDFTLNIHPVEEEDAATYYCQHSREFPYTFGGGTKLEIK"
  UNIT_TEXT: "nM"
  Kd: 2.94

Alright, here's another binder for you.
Prompt: Given the binder h97A3C2H4-9 (antibody, V domains shown, Humanized antibody; VH3-7/JH6 CDR-grafted with A93T, G44R; also called humanized BLyS antibody h97A3C2H4 variant 9 (VH.1b / Vk.1d)) VH: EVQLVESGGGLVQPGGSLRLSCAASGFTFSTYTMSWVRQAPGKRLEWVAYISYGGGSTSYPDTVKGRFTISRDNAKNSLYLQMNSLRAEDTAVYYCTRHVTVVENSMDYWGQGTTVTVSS VL: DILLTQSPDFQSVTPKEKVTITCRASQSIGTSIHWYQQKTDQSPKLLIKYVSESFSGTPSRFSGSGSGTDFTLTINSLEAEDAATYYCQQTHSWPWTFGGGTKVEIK , what is its reported Kd?
Response: 1.88
